# Tested on: collagenase
# measurement-setup: Conc. 0.025%, day 4

compound: O=C([O-])CN(CCN(CC(=O)O)CC(=O)O)CC(=O)[O-].[Na+].[Na+] [Na2EDTA]
Collagenase Activity/Days 4: ++++

compound: O=C([O-])CN(CCN(CC(=O)[O-])CC(=O)O)CC(=O)[O-].[Na+].[Na+].[Na+] [Na3EDTA]
Collagenase Activity/Days 4: ++++

compound: O=C([O-])CN(CCN(CC(=O)[O-])CC(=O)[O-])CC(=O)[O-].[Na+].[Na+].[Na+].[Na+] [Na4EDTA]
Collagenase Activity/Days 4: ++++

compound: O=C(O)CN(CCOCCOCCN(CC(=O)O)CC(=O)O)CC(=O)O [Na4EGTA]
Collagenase Activity/Days 4: ++++

* * *

# Tested on: collagenase
# measurement-setup: Conc. 0.1%, day 2

compound: O=C([O-])CN(CCN(CC(=O)O)CC(=O)O)CC(=O)[O-].[Na+].[Na+] [Na2EDTA]
Collagenase Activity/Days 2: +
--
compound: O=C([O-])CN(CCN(CC(=O)[O-])CC(=O)O)CC(=O)[O-].[Na+].[Na+].[Na+] [Na3EDTA]
Collagenase Activity/Days 2: +
--
compound: O=C([O-])CN(CCN(CC(=O)[O-])CC(=O)[O-])CC(=O)[O-].[Na+].[Na+].[Na+].[Na+] [Na4EDTA]
Collagenase Activity/Days 2: +
--
compound: O=C(O)CN(CCOCCOCCN(CC(=O)O)CC(=O)O)CC(=O)O [Na4EGTA]
Collagenase Activity/Days 2: 0

* * *

# Test system: collagenase
# measurement-setup: Conc. 0.3%, day 2

molecule: O=C([O-])CN(CCN(CC(=O)[O-])CC(=O)O)CC(=O)[O-].[Na+].[Na+].[Na+] [Na3EDTA]
Collagenase Activity/Days 2: 0
--
molecule: O=C(O)CN(CCOCCOCCN(CC(=O)O)CC(=O)O)CC(=O)O [Na4EGTA]
Collagenase Activity/Days 2: 0
--
molecule: O=C([O-])CN(CCN(CC(=O)O)CC(=O)O)CC(=O)[O-].[Na+].[Na+] [Na2EDTA]
Collagenase Activity/Days 2: 0

* * *

# Tested on: collagenase
# measurement-setup: Conc. 0.3%, day 1

structure-as-smiles: O=C([O-])CN(CCN(CC(=O)[O-])CC(=O)O)CC(=O)[O-].[Na+].[Na+].[Na+]
target-system: collagenase
Collagenase Activity/Days 1: 0
--
structure-as-smiles: O=C([O-])CN(CCN(CC(=O)O)CC(=O)O)CC(=O)[O-].[Na+].[Na+]
target-system: collagenase
Collagenase Activity/Days 1: 0
--
structure-as-smiles: O=C([O-])CN(CCN(CC(=O)[O-])CC(=O)[O-])CC(=O)[O-].[Na+].[Na+].[Na+].[Na+]
target-system: collagenase
Collagenase Activity/Days 1: 0
--
structure-as-smiles: O=C(O)CN(CCOCCOCCN(CC(=O)O)CC(=O)O)CC(=O)O
target-system: collagenase
Collagenase Activity/Days 1: 0

* * *

# Tested on: collagenase
# measurement-setup: Conc. 0.1%, day 4

structure-as-smiles: O=C(O)CN(CCOCCOCCN(CC(=O)O)CC(=O)O)CC(=O)O
Collagenase Activity/Days 4: +

structure-as-smiles: O=C([O-])CN(CCN(CC(=O)[O-])CC(=O)O)CC(=O)[O-].[Na+].[Na+].[Na+]
Collagenase Activity/Days 4: +++

structure-as-smiles: O=C([O-])CN(CCN(CC(=O)O)CC(=O)O)CC(=O)[O-].[Na+].[Na+]
Collagenase Activity/Days 4: +++

structure-as-smiles: O=C([O-])CN(CCN(CC(=O)[O-])CC(=O)[O-])CC(=O)[O-].[Na+].[Na+].[Na+].[Na+]
Collagenase Activity/Days 4: ++

* * *

# Tested on: mixed bacteria on fresh hide samples
# Parameters: key to the marks not given beside the values
# measurement-setup: Conc. 0.5%, day 2

structure-as-smiles: O=C([O-])CN(CCN(CC(=O)[O-])CC(=O)O)CC(=O)[O-].[Na+].[Na+].[Na+]
Growth/Days 2: ++++
//
structure-as-smiles: O=C([O-])CN(CCN(CC(=O)O)CC(=O)O)CC(=O)[O-].[Na+].[Na+]
Growth/Days 2: +++
//
structure-as-smiles: O=C(O)CN(CCOCCOCCN(CC(=O)O)CC(=O)O)CC(=O)O
Growth/Days 2: ++++
//
structure-as-smiles: O=C([O-])CN(CCN(CC(=O)[O-])CC(=O)[O-])CC(=O)[O-].[Na+].[Na+].[Na+].[Na+]
Growth/Days 2: ++++

* * *

# Test system: collagenase
# measurement-setup: Conc. 0.5%, day 7
In this section, each of the molecules is paired with its reported Collagenase Activity/Days 7.
experimental-readout: Collagenase Activity/Days 7

structure-as-smiles: O=C(O)CN(CCOCCOCCN(CC(=O)O)CC(=O)O)CC(=O)O
target-system: collagenase
value: 0

structure-as-smiles: O=C([O-])CN(CCN(CC(=O)O)CC(=O)O)CC(=O)[O-].[Na+].[Na+]
target-system: collagenase;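 note: nutrient agar containing 0.5% Azocoll with inhibitor, topped by a fresh hide piece, kept at 30 °C, collagenase from hide bacteria scored visually as clearing zone around growth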
value: 0

* * *

# Tested on: mixed bacteria on fresh hide samples;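 note: fresh hide pieces laid on inhibitor-containing nutrient agar supplemented with 0.5% Azocoll, incubated at 30 °C, then scored for growth of bacteria originating from the hide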
# measurement-setup: Conc. 0.4%, day 1
experimental-readout: Growth/Days 1

compound: O=C([O-])CN(CCN(CC(=O)[O-])CC(=O)[O-])CC(=O)[O-].[Na+].[Na+].[Na+].[Na+] [Na4EDTA]
experimental-readout: Growth/Days 1
value: ++++
--
compound: O=C([O-])CN(CCN(CC(=O)O)CC(=O)O)CC(=O)[O-].[Na+].[Na+] [Na2EDTA]
experimental-readout: Growth/Days 1
value: 0
--
compound: O=C([O-])CN(CCN(CC(=O)[O-])CC(=O)O)CC(=O)[O-].[Na+].[Na+].[Na+] [Na3EDTA]
experimental-readout: Growth/Days 1
value: ++++
--
compound: O=C(O)CN(CCOCCOCCN(CC(=O)O)CC(=O)O)CC(=O)O [Na4EGTA]
experimental-readout: Growth/Days 1
value: +++

Data origin, for the record: patent US20060112494A1
